Tested on: Zymoseptoria tritici
Protocol details: Leaf Blotch of Wheat (SEPTTR) disease control on wheat seedlings
Type: in vivo
Setup conditions: 72 h, Low Volume (121.5 g/H), 3 Day Curative, read-out: SEPTTR disease control, 3 DC
Description: Example A: Evaluation of Fungicidal Activity: Leaf Blotch of Wheat (Mycosphaerella graminicola; Anamorph: Zymoseptoria tritici; Bayer code […]) Technical grades of materials were dissolved in acetone, which were then mixed with nine volumes of water containing 110 ppm Triton X-100. […] All fungicides were evaluated using the aforementioned method for their activity vs. all target diseases, unless stated otherwise. […]
Reported metric: pest or weed control at 121.5 g/ha

Below: 5 molecules and their reported pest or weed control at 121.5 g/ha.
COCC[C@H]1OCC[C@H](NC(=O)c2nccc(OC)c2OC(C)=O)C(=O)O[C@@H](C)[C@@H]1Cc1ccccc1 [Compound 4]; > 70%
COc1ccnc(C(=O)N[C@H]2CCOC[C@@H](Cc3ccccc3-c3ccccc3)[C@H](C)OC2=O)c1OC(C)=O [Compound 11]; < 70%
COCC[C@H]1OCC[C@H](NC(=O)c2nccc(OC)c2OC(C)=O)C(=O)O[C@@H](C)[C@@H]1Cc1ccc(F)cc1 [Compound 8]; < 70%
COc1ccnc(C(=O)N[C@H]2CCO[C@H](CCc3ccc(F)cc3)[C@@H](CCC(C)C)[C@H](C)OC2=O)c1OCOC(=O)C(C)C [Compound 39]; < 70%
CCC[C@H]1OCC[C@H](NC(=O)c2nccc(OC)c2OCOC(C)=O)C(=O)O[C@@H](C)[C@@H]1Cc1ccccc1 [Compound 17]; > 70%

Req: Reported pest or weed control at 121.5 g/ha for COc1ccnc(C(=O)N[C@H]2CCOC[C@@H](Cc3ccccc3)[C@H](C)OC2=O)c1OCOC(=O)C(C)C [Compound 36] : what is it?
Resp: < 70%

Req: Param item = CCCC[C@H]1OCC[C@H](NC(=O)c2nccc(OC)c2OCOC(C)=O)C(=O)O[C@@H](C)[C@@H]1Cc1ccc(F)cc1 [Compound 23] ; retrieve measured pest or weed control at 121.5 g/ha.
Resp: > 70%

Req: What value of pest or weed control at 121.5 g/ha has been reported for the following molecule? CCCC[C@H]1[C@H](C)OC(=O)[C@@H](NC(=O)c2nccc(OC)c2OCOC(C)=O)CCO[C@@H]1CC [Compound 34]
Resp: < 70%

###

Reported metric: melting point

Req: Please report the recorded melting point for `COc1ccnc(C(=O)N[C@H]2CCOC[C@@H](CCC(C)C)[C@H](C)OC2=O)c1O` .
Resp: 49 to 53 °C

###

Test system: Zymoseptoria tritici
Protocol details: Leaf Blotch of Wheat (SEPTTR) disease control on wheat seedlings
Format: in vivo
Setup conditions: 72 h, Low Volume (121.5 g/H), 3 Day Curative, read-out: SEPTTR disease control, 3 DC
Reported metric: pest or weed control at 121.5 g/ha

# count of solved cases: 3
COc1ccnc(C(=O)N[C@H]2CCOC[C@@H](Cc3ccc(F)cc3)[C@H](C)OC2=O)c1OCOC(C)=O [Compound 21]; < 70%
CC[C@H]1OCC[C@H](NC(=O)c2nccc(OC)c2OCOC(C)=O)C(=O)O[C@@H](C)[C@@H]1Cc1ccc(F)cc1 [Compound 22]; > 70%
CCCC[C@H]1OCC[C@H](NC(=O)c2nccc(OC)c2OCOC(C)=O)C(=O)O[C@@H](C)[C@@H]1Cc1ccccc1 [Compound 18]; > 70%

Req: Which pest or weed control at 121.5 g/ha value is on record for CCCC[C@H]1[C@H](C)OC(=O)[C@@H](NC(=O)c2nccc(OC)c2OC(C)=O)CCO[C@@H]1CC [Compound 14] ?
Resp: < 70%

Req: Tell me the measured pest or weed control at 121.5 g/ha of COc1ccnc(C(=O)N[C@H]2CCO[C@H](Cc3ccccc3)[C@@H](Cc3ccccc3)[C@H](C)OC2=O)c1OCOC(C)=O [Compound 19] , please.
Resp: > 70%

Req: Form field: reported pest or weed control at 121.5 g/ha of COc1ccnc(C(=O)N[C@H]2CCO[C@H](Cc3ccccc3)[C@@H](Cc3ccccc3)[C@H](C)OC2=O)c1OCOC(=O)C(C)C [Compound 37]
Resp: > 70%

Req: Sample CCCC[C@H]1[C@H](C)OC(=O)[C@@H](NC(=O)c2nccc(OC)c2OC(C)=O)CCO[C@@H]1COc1ccccc1 [Compound 15] — what was its pest or weed control at 121.5 g/ha?
Resp: > 70%

###

Reported metric: melting point

Illustrative cases are given below, each with its answer.
CC(C)CC[C@H]1[C@H](C)OC(=O)[C@@H](NC(=O)OC(C)(C)C)CCO[C@@H]1Cc1ccccc1; 41 to 44 °C
CCCC[C@H]1[C@H](C)OC(=O)[C@@H](N)CCO[C@@H]1COc1ccccc1.Cl; 195 to 197 °C
COc1ccnc(C(=O)N[C@H]2CCO[C@H](CCc3ccccc3)[C@@H](CCC(C)C)[C@H](C)OC2=O)c1OCOC(C)=O; 48 to 54 °C

Req: Using the record for `CC(C)CC[C@H]1[C@H](C)OC(=O)[C@@H](NC(=O)OC(C)(C)C)CCO[C@@H]1CCc1ccc(F)cc1` , report its melting point.
Resp: 39 to 44 °C

###

System: Zymoseptoria tritici
Protocol details: Leaf Blotch of Wheat (SEPTTR) disease control on wheat seedlings
Assay type: in vivo
Setup conditions: 72 h, Low Volume (121.5 g/H), 3 Day Curative, read-out: SEPTTR disease control, 3 DC
Reported metric: pest or weed control at 121.5 g/ha

COc1ccnc(C(=O)N[C@H]2CCO[C@H](CCc3ccc(F)cc3)[C@@H](CCC(C)C)[C@H](C)OC2=O)c1OC(C)=O [Compound 10]; > 70%

Req: What does the data say about its pest or weed control at 121.5 g/ha? Entry: COCC[C@H]1OCC[C@H](NC(=O)c2nccc(OC)c2OCOC(C)=O)C(=O)O[C@@H](C)[C@@H]1Cc1ccccc1 [Compound 20]
Resp: > 70%

Req: Form field: reported pest or weed control at 121.5 g/ha of COc1ccnc(C(=O)N[C@H]2CCO[C@H](CCc3ccccc3)[C@@H](CCC(C)C)[C@H](C)OC2=O)c1OCOC(C)=O [Compound 26]
Resp: > 70%

Req: Could you tell me which pest or weed control at 121.5 g/ha is on file for COc1ccnc(C(=O)N[C@H]2CCO[C@H](Cc3ccccc3)[C@@H](CCC(C)C)[C@H](C)OC2=O)c1OCOC(C)=O [Compound 29] ?
Resp: > 70%

Req: Give its pest or weed control at 121.5 g/ha value. Item: COc1ccnc(C(=O)N[C@H]2CCOC[C@@H](Cc3ccccc3)[C@H](C)OC2=O)c1OCOC(C)=O [Compound 16]
Resp: < 70%

Req: Need pest or weed control at 121.5 g/ha, item CCOCC(=O)OCOc1c(OC)ccnc1C(=O)N[C@H]1CCO[C@H](Cc2ccccc2)[C@@H](Cc2ccccc2)[C@H](C)OC1=O [Compound 44]
Resp: > 70%

###

pest or weed control at 121.5 g/ha values for the molecules below.
Tested on: Zymoseptoria tritici
Protocol details: Leaf Blotch of Wheat (SEPTTR) disease control on wheat seedlings
Assay type: in vivo
Setup conditions: 72 h, Low Volume (121.5 g/H), 3 Day Curative, read-out: SEPTTR disease control, 3 DC

Example entries and their recorded answers appear below.
CCOCC(=O)Oc1c(OC)ccnc1C(=O)N[C@H]1CCOC[C@@H](Cc2ccccc2)[C@H](C)OC1=O; < 70%
CCCC[C@H]1[C@H](C)OC(=O)[C@@H](NC(=O)c2nccc(OC)c2OCOC(=O)C(C)C)CCO[C@@H]1COc1ccccc1; > 70%
CCCC[C@H]1[C@H](C)OC(=O)[C@@H](NC(=O)c2nccc(OC)c2OCOC(=O)COCC)CCO[C@@H]1COc1ccccc1; > 70%
COc1ccnc(C(=O)N[C@H]2CCOC[C@@H](CCC(C)C)[C@H](C)OC2=O)c1OCOC(C)=O; > 70%

Req: Requested read-out: pest or weed control at 121.5 g/ha. Entry: `COc1ccnc(C(=O)N[C@H]2CCO[C@H](CCc3ccccc3)[C@@H](Cc3ccc(F)cc3)[C@H](C)OC2=O)c1OCOC(C)=O`
Resp: > 70%

###

Listed compounds paired with reported melting point

// known answers, use as guide
COc1ccnc(C(=O)N[C@H]2CCO[C@H](CCc3ccc(F)cc3)[C@@H](CCC(C)C)[C@H](C)OC2=O)c1OCOC(C)=O; 49 to 54 °C
CCCC[C@H]1[C@H](C)OC(=O)[C@@H](NC(=O)c2nccc(OC)c2O)CCO[C@@H]1CC; 44 to 46 °C
COc1ccnc(C(=O)N[C@H]2CCO[C@H](CCc3ccc(F)cc3)[C@@H](CCC(C)C)[C@H](C)OC2=O)c1OCOC(=O)C(C)C; 49 to 54 °C
CCC[C@H]1OCC[C@H](NC(=O)c2nccc(OC)c2O)C(=O)O[C@@H](C)[C@@H]1Cc1ccccc1; 52 to 56 °C
COc1ccnc(C(=O)N[C@H]2CCO[C@H](Cc3ccccc3)[C@@H](CCC(C)C)[C@H](C)OC2=O)c1OCOC(C)=O; 55 to 60 °C

Req: Look up melting point: `CC(C)CC[C@@H]1COCC[C@H](NC(=O)OC(C)(C)C)C(=O)O[C@H]1C`
Resp: 110 to 112 °C

Req: Given `COc1ccnc(C(=O)N[C@H]2CCOC[C@@H](Cc3ccccc3-c3ccccc3)[C@H](C)OC2=O)c1OCOC(=O)C(C)C` , state its recorded melting point.
Resp: 54 to 59 °C
